Cited source for all entries: PubChem BioAssay AID1902

# TEST TARGET: S. pyogenes SKKanGAS, kanamycin survival, BacTiterGlo, 6 h
# METHOD: S. pyogenes SKKanGAS kanamycin growth inhibitors – SKKanGAS strain, luminescence, dose confirmation, streptokinase promoter inhibitor project, dose response (AID 1902);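 note: lower survival reflects blocked streptokinase promoter driving kanamycin resistance gene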
Calls of active or inactive are those of the source.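 Rule for the calls: active = EC50 no more than a set limit of log units above the highest dose; inactive = the rest.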
Outcome field: choose from YES for active, NO for inactive

q: Tell me the assay call for `Cc1ccc(C(=O)N2CCOCC2)cc1S(=O)(=O)N1CCOCC1` please.
a: NO

q: Recorded test call requested for `Cn1c(=O)[nH]c(=O)c2c1nc(N1CCC(Cc3ccccc3)CC1)n2Cc1ccccc1`
a: YES

q: What outcome does the record of this test show for `Cc1ccc(C(=O)Nc2nnc(C3=COCCO3)o2)cc1C` ?
a: YES

q: // outcome(item) with item = `Oc1ccc2ccccc2c1/C=N/Nc1nnc(-c2ncc[nH]2)c2ccccc12`
a: YES

====

# TEST TARGET: S. pyogenes SKKanGAS, kanamycin survival, BacTiterGlo, 6 h
# METHOD: S. pyogenes SKKanGAS kanamycin growth inhibitors – SKKanGAS strain, luminescence, dose confirmation, streptokinase promoter inhibitor project, dose response (AID 1902);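 note: lower survival reflects blocked streptokinase promoter driving kanamycin resistance gene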
Active and inactive are the calls of the source.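 How the source made its calls: active means EC50 no more than a set limit of log units above the highest dose; inactive means the rest.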
Return exactly one item of yes (1) for active, no (0) for inactive

q: # lookup: test call for `CN(C)[C@@H]1C(=O)C(C(N)=O)=C(O)[C@@]2(O)C(=O)C3=C(O)c4c(O)ccc(Cl)c4[C@@](C)(O)[C@H]3C[C@@H]12`
a: yes (1)

q: Would you mind telling me which call this test gave `C/C(=N\NC(=O)c1ccc(Cl)c(Cl)c1)c1ccccn1` ?
a: yes (1)

q: Each compound tested received a call. Report the one for `O=C(NC(=S)N1CCN(c2nc(-c3ccccc3)cs2)CC1)c1cncc(Br)c1` .
a: yes (1)

q: Recorded test outcome, item `COc1ccc(CC(=O)N/N=C/c2cc([N+](=O)[O-])cc(Br)c2O)cc1`
a: yes (1)

q: What classification did `Cc1[nH]n(-c2cccc3ccccc23)c(=O)c1/C=N/NC(=O)c1cccc([N+](=O)[O-])c1` end up with in this test?
a: yes (1)

q: Could you kindly confirm the outcome this assay logged for `Cc1onc(-c2ccccc2)c1C(=O)NNC(=S)NC(=O)c1ccc(Cl)cc1Cl` ?
a: yes (1)

q: Kindly provide the recorded test outcome for the following compound: `Cc1ccccc1OCC(=O)Nc1ccccc1N1CCC(C)CC1`
a: yes (1)

q: Would you mind telling me which call this test gave `CCN1/C(=C/C(C)=C/c2sc3ccccc3[n+]2CC)Sc2ccccc21` ?
a: yes (1)

q: Hi team, can someone confirm the assay call for `O=C(NC(=S)NNC(=O)c1ccco1)c1ccc(Br)cc1` ?
a: yes (1)

q: Please share the test call associated with `O=C(N/N=C/c1ccccc1O)NC12CC3CC(CC(C3)C1)C2` .
a: yes (1)

q: I'd appreciate the recorded outcome for `c1ccc(Nc2nc(N3CCCCC3)nc(N3CCCCC3)n2)cc1` from this test.
a: yes (1)

q: // return assay outcome for `CN1CCN(C(=O)C(=O)c2cn(CC(=O)N3CCCC3)c3ccccc23)CC1`
a: no (0)

q: Tell me the assay call for `COc1ccc(C(=O)NNC(=S)NC(=O)c2ccco2)cc1` please.
a: yes (1)

q: Field: outcome | Entry: `Cc1cccc(C)c1OCC(=O)NNC(=S)NC(=O)C1CC1`
a: yes (1)

q: I'd appreciate the recorded outcome for `Cc1cnc(NC(=O)c2cc3c(C)nn(-c4ccccc4)c3s2)s1` from this test.
a: yes (1)

q: So what was the verdict on `Cc1cccc(C)c1Nc1c(-c2ccccn2)nc2ccccn12` in this test?
a: yes (1)

q: Any idea what this test logged for `COc1ccc2nc(Nc3nc(C)c(C(C)=O)s3)sc2c1` ?
a: yes (1)

q: Hi team, can someone confirm the assay call for `CC(C)c1ccc(-n2c(O)c(/C=N/NC(=O)c3ccccc3O)c(=O)[nH]c2=S)cc1` ?
a: yes (1)

q: For CNC(=O)C(=O)NCC1OCCN1S(=O)(=O)c1ccc(OC)c(OC)c1 (configuration not stated) , which call appears in the assay record?
a: no (0)

q: Given `Cn1cc(C(=O)c2ccc(Cl)cc2Cl)cc1C(=O)N/N=C(\N)COc1cccc(C(F)(F)F)c1` , state the outcome it received in this test.
a: yes (1)

q: Hey, what did the test say about O=C(Nc1ccc(OC(F)(F)F)cc1)C1CCCN(S(=O)(=O)c2cnc[nH]2)C1 (configuration not stated) ?
a: no (0)

q: Answer briefly: the call reported for `O=C(Nc1nc(-c2ccccn2)cs1)c1ncc(Cl)c(Cl)c1Cl` in this assay.
a: yes (1)

====

# TEST TARGET: S. pyogenes SKKanGAS, kanamycin survival, BacTiterGlo, 6 h
# METHOD: S. pyogenes SKKanGAS kanamycin growth inhibitors – SKKanGAS strain, luminescence, dose confirmation, streptokinase promoter inhibitor project, dose response (AID 1902);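 note: lower survival reflects blocked streptokinase promoter driving kanamycin resistance gene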
Active and inactive are the calls of the source.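 The calls were made as follows: active = EC50 no more than a set limit of log units above the highest dose; inactive = the rest.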
Form entry, call: pick from active, inactive

q: How was `Cc1cc(C)c2c(C(C)(C)C)nn(-c3ccccc3)c2n1` classified in this test?
a: active

q: Which outcome was assigned to `Oc1c(Br)cc(Br)cc1CNc1ccc(F)cc1` in this test?
a: active

q: Dear colleague, could you share the recorded outcome for `CCOC(=O)CCC(=O)O[C@H]1[C@H](O[C@@H]2[C@@H](C)[C@H](O[C@H]3C[C@@](C)(OC)[C@@H](O)[C@H](C)O3)[C@@H](C)C(=O)O[C@H](CC)[C@@](C)(O)[C@H](O)[C@@H](C)C(=O)[C@H](C)C[C@@]2(C)O)O[C@H](C)C[C@@H]1N(C)C` when you have a moment?
a: active

q: Recorded test outcome, item `COc1ccc(S(=O)(=O)N2CCN=C2SCc2cccc(C)c2)cc1`
a: inactive

q: // return assay outcome for CC1COc2c(N3CCN(C)CC3)c(F)cc3c(=O)c(C(=O)O)cn1c23 (configuration not stated)
a: active

q: I'd appreciate the recorded outcome for `Cc1ccc(Oc2nc(-c3ccccn3)nc3ccccc23)cc1` from this test.
a: active

q: Assay outcome for OC(CN=c1sc2ccccc2n1CC(O)COc1ccccc1)COc1ccccc1 (configuration not stated) : what was it?
a: active

q: Could you please tell me the result logged for Cc1cc(=O)oc2cc(OCC(=O)N3CCN(C(=O)C4COc5ccccc5O4)CC3)ccc12 (configuration not stated) in this assay?
a: active

q: Record lookup: outcome of this test for `Nc1nc(Nc2cccc(Cl)c2)nc(NCc2ccco2)c1[N+](=O)[O-]` ?
a: active

q: Recorded test call requested for `COC(=O)c1ccc(CN(c2ccc(C(=O)O)c(O)c2)S(=O)(=O)c2ccc(Cl)c([N+](=O)[O-])c2)cc1`
a: active

q: Returns: the outcome recorded for `CCN1C(=O)/C(=C\c2ccc(-c3ccc([N+](=O)[O-])cc3OC)o2)SC1=Nc1cccc(C(=O)O)c1` in this assay.
a: active

q: Record lookup: outcome of this test for `O=[N+]([O-])c1c(NCCO)cc(Sc2nc3ccccc3s2)c2nonc12` ?
a: active

q: Any idea what this test logged for `CC(C)=CCc1c2c(c3occ(-c4ccc(O)cc4)c(=O)c3c1O)C=CC(C)(C)O2` ?
a: active

q: Please state the recorded outcome for this molecule: `CCOC(=O)c1cnc(-n2nc(C)cc2C)nc1Nc1ccc(C)cc1`
a: active

q: Recorded test call requested for `Cc1cccc(Oc2nc(-c3ccncc3)nc3ccccc23)c1`
a: active

q: Test call for this molecule, please: `COc1ccccc1-n1cnc2c(c1=O)c1nc3ccccc3nc1n2-c1ccc(C)c(C)c1`
a: active

q: Recorded test call requested for `FC(F)(F)c1cc(Nc2ccccc2)nc(-c2ccccn2)n1`
a: active
